Parameter GSH-Px: see the listing below.
- Test system: acute renal failure of mice induced by endotoxin
- ASSAY_REMARKS: Acute renal failure model induced by endotoxin
- Format: in vivo, NIH mice
- MEASUREMENT_SETUP: mice kidney homogenate, drug 10 mg/kg i.p., endotoxin 0.06 g/kg, after five hours, n=10
Number first, unit second.

Lab note: measured GSH-Px of C[C@]12CC[C@H](OC(=O)CCCC(=O)O[C@H]3CC[C@@]4(C)C(=CC[C@@H]5[C@@H]4CC[C@]4(C)C(=O)CC[C@@H]54)C3)CC1=CC[C@@H]1[C@@H]2CC[C@]2(C)C(=O)CC[C@@H]12 [Compound E] was 32.0 ± 14.4 nU · L^−1

Lab book: GSH-Px of C[C@]12CC[C@H](OC(=O)CCCCC(=O)O[C@H]3CC[C@@]4(C)C(=CC[C@@H]5[C@@H]4CC[C@]4(C)C(=O)CC[C@@H]54)C3)CC1=CC[C@@H]1[C@@H]2CC[C@]2(C)C(=O)CC[C@@H]12 [Compound F] noted as 35.2 ± 12.8 nU · L^−1

Summary for this molecule, C[C@]12CC[C@H](OC(=O)CC(=O)O[C@H]3CC[C@@]4(C)C(=CC[C@@H]5[C@@H]4CC[C@]4(C)C(=O)CC[C@@H]54)C3)CC1=CC[C@@H]1[C@@H]2CC[C@]2(C)C(=O)CC[C@@H]12 [Compound C] : GSH-Px is 29.8 ± 11.6 nU · L^−1

Measured GSH-Px of CC12CCC3C(CC=C4CC(OC(=O)CCC(=O)OC5CCC6(C)C(=CCC7C8CCC(=O)C8(C)CCC76)C5)CCC43C)C1CCC2=O (stereo not shown) [Compound D] : 38.4 ± 15.0 nU · L^−1
